TEST TARGET: human CD33 S131N (human, UniProt P20138 18-364)
Sequence (P20138 18-364 S131N limits assumed): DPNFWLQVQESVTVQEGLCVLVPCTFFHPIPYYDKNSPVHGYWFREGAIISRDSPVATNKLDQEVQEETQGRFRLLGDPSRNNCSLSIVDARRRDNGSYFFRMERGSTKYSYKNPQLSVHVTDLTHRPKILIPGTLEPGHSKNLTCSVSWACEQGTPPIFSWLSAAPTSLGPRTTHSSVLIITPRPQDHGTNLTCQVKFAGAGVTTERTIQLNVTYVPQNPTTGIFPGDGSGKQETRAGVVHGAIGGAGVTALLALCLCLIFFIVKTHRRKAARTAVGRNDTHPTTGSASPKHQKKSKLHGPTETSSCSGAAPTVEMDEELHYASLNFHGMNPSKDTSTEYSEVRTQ
TEST METHOD NOTES: flow cytometry, HEK293-T, IgG;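 also: CD33 point mutants transiently expressed, antibody binding measured by fluorescence in duplicate, background subtracted and scaled to binding on wild-type CD33 as 100%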
PROPERTY: Mean % WT Binding (% WT binding)
Quick note: give the figure in % WT binding, leave out the unit.

Q: Look at this binder and give its reported Mean % WT Binding. Refmab #2 (antibody, human IgG1, V domains shown, tested in IgG format) VH: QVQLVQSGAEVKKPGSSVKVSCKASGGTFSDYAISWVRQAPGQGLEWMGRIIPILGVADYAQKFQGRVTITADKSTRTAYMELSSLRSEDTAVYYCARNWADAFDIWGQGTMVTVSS VL: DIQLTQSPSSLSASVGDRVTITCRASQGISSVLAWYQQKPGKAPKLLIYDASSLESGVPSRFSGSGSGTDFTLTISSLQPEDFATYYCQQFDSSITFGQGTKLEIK
Result: 126

Q: Look at this binder and give its reported Mean % WT Binding. Refmab #1 (antibody, human IgG1, V domains shown, tested in IgG format; also called hP67.6) VH: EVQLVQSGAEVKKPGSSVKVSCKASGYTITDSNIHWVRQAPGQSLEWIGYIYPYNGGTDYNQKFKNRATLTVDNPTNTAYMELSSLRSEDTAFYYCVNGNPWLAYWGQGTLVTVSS VL: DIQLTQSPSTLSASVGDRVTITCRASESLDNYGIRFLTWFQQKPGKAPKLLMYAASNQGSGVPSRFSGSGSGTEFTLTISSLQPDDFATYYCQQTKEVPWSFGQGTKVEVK
Result: 94.6

Q: Look at this binder and give its reported Mean % WT Binding. Refmab #4 (antibody, human IgG1, V domains shown, tested in IgG format) VH: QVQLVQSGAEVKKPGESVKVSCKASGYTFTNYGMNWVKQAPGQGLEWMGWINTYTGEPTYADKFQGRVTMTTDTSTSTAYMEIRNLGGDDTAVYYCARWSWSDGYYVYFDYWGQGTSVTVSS VL: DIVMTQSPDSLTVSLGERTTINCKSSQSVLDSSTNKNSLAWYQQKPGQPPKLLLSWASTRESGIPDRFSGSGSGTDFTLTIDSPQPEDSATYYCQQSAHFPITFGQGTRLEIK
Result: 105

Q: Look at this binder and give its reported Mean % WT Binding. Refmab #3 (antibody, human IgG1, V domains shown, tested in IgG format) VH: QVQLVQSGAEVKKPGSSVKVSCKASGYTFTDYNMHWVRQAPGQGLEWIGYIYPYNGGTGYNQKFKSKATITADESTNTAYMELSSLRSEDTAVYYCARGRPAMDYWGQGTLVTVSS VL: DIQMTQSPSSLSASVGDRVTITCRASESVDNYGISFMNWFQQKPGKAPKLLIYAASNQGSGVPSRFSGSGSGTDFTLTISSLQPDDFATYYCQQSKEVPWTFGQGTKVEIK
Result: 118
